Origin of values: paper PMC4050191

# target-under-test: C-terminal domain of human centrin 1 (M93-Y172) (human, UniProt Q12798 93-172)
# Sequence (Q12798 93-172): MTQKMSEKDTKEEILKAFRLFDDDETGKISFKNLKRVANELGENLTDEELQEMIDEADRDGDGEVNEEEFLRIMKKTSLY
# assay-notes: ITC
assay-readout: stoichiometry N
// no unit string in output, number only

Worked set:
Lookup: Reported stoichiometry N, binder Ac-TVWAQLARHLVSHQHHLDAR-NH2 [HsSfi1R17inv, repeat 17 peptide of human Sfi1 in reversed sequence orientation] : ____
Found: 0.8

Lookup: Given the binder Ac-RADLHHQHSVLHRALQAWVT-NH2 [HsSfiR17, repeat 17 peptide of human Sfi1 (641-660)] , what is its reported stoichiometry N?
Found: 1.21

Lookup: Would you kindly share the measured stoichiometry N for Ac-SQHNRQLLRGALRRWK-NH2 [HsSfiR18, repeat 18 peptide of human Sfi1 (677-692)] ?
Found: 0.99

Now for another entry.
Lookup: Reported stoichiometry N, binder Ac-NWKLLAKGLLIRERLKR-NH2 [P17-XPC, 17-residue peptide of human XPC] : ____
Found: 0.93
